Where these numbers come from: PubChem BioAssay (NCI)

# Tested on: HCT-15 colon
# experimental_details: NCI-60 one-dose screen, 48 h (100 = growth as untreated, 0 = no growth, -100 = all killed)
# measurement_parameters: 10 µM unless noted
About 83,000 compounds went through this panel and 20% of them were active in at least one assay; those are over-represented in the sample as a whole.
endpoint_name: growth (%)
Answer in %, number only, no unit symbol.

Study these solved cases before continuing.
INSERT INTO assay_data (entry_smiles, recorded_value) VALUES
  ('COc1ccc2c(CCCCC(c3ccccc3)c3ccccc3)c3[n+](cc2c1OC)CCc1cc2c(cc1-3)OCO2', -47),
  ('CSc1nc2ncnc(SC)c2[nH]1', 110),
  ('Cc1cc(N(CCNc2ccnc3cc(Cl)ccc23)Cc2ccc3c(c2)OCO3)nc(N2CCCC2)n1', 0.301);

Let us move to another entry and its growth.
### Prompt May I ask what growth has been recorded for CC(=O)c1c(C)c2cnc(Nc3ccc(N4CCNCC4)cn3)nc2n(C2CCCC2)c1=O ?
### Response 22.4
